# TARGET_SYSTEM: human mPGES-1 (Homo sapiens, UniProt O14684)
# Sequence (O14684 1-152): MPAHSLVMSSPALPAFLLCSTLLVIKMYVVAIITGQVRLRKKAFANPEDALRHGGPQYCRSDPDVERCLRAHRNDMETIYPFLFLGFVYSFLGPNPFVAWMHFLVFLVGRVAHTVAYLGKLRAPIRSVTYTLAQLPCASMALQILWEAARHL
pIC50: −log10 of the molar value.
READOUT_LABEL: pIC50

Sample records with pIC50:
>  <COMPOUND>
NS(=O)(=O)c1cc(F)ccc1NS(=O)(=O)CCc1ccc(Cl)cc1 [Example 21]

>  <pIC50>
6.49

$$$$
>  <COMPOUND>
NS(=O)(=O)c1cc(F)ccc1NS(=O)(=O)/C=C/c1ccc(Cl)c(Cl)c1 [Example 24]

>  <pIC50>
6.52

$$$$

[1] COc1ccc(Br)cc1/C=C/S(=O)(=O)Nc1ccc(F)cc1S(N)(=O)=O [Example 27]
[2] NS(=O)(=O)c1c(F)cccc1NS(=O)(=O)/C=C/c1ccc(C(F)(F)F)cc1 [Example 90]
Which record would sort first by descending pIC50, 1 or 2 ? Please indicate the selected item by its label.
1
(1: 6.57, 2: 6.06)
